# system-name: Zcchc11 enzyme (Homo sapiens)
# Construct: made in house; host or cells: HEK293 cells (Zcchc11); E. coli Rosetta II (LIN28A)
# Sequence (Q5TAX3 212-1420): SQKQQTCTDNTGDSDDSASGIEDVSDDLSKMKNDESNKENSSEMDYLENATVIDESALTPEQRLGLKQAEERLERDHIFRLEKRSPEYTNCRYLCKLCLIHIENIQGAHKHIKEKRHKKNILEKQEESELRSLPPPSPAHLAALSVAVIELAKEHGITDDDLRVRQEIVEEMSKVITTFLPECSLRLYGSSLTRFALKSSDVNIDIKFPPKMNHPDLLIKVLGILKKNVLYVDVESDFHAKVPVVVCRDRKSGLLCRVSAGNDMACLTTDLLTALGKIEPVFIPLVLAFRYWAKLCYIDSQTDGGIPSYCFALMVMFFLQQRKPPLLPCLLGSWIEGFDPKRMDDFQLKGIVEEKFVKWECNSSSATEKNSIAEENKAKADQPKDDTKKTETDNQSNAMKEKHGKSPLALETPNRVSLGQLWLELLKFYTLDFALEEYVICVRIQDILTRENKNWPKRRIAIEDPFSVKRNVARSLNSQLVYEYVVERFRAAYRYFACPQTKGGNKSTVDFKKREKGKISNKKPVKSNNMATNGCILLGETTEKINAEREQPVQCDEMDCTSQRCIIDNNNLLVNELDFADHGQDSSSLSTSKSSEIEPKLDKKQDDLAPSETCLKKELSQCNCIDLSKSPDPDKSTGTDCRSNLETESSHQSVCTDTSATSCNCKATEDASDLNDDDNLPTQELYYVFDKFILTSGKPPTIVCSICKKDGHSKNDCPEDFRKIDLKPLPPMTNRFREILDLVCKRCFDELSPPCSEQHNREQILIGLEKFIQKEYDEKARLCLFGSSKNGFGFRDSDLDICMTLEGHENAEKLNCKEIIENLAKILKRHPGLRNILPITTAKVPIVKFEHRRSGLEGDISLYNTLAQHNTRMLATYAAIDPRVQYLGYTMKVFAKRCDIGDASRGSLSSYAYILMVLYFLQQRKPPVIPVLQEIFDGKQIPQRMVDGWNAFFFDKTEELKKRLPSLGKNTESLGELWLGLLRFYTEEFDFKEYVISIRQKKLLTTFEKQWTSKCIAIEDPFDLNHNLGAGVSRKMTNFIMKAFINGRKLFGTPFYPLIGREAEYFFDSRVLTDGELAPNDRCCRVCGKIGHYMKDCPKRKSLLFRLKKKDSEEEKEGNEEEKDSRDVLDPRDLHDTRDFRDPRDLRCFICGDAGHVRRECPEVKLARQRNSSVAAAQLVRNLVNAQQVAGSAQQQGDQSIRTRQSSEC
# protocol: TUTase assay (Zcchc11 assay, Lin28a-dependent polyuridylation of pre-let-7)
# Format: biochemical
# recorded-conditions: Lin28a-dependent Zcchc11 (Z11) TUTase activity; read-out: Potency Lin28a-dep Z11 IC50
pIC50: −log10 of the molar value.
Items are presented alongside their recorded pIC50.

Reported pIC50 of O=C(O)c1cn(-c2cc(F)cc(F)c2)c2cc(N3CCC[C@@H]3COc3ccccn3)c(F)cc2c1=O : 5.00 to 6.00

Reported pIC50 of O=C(O)c1cn(-c2cnn(C3CNC3)c2)c2cc(N3CCC[C@@H]3COc3ncccc3Cl)c(Cl)cc2c1=O : ≥ 6.00
